# measured_target: active mMMP-9(cat)_FLAG_Avi (UniProt P41245 108-450)
# Sequence (P41245 other isoform, or with tags, fused parts or gaps): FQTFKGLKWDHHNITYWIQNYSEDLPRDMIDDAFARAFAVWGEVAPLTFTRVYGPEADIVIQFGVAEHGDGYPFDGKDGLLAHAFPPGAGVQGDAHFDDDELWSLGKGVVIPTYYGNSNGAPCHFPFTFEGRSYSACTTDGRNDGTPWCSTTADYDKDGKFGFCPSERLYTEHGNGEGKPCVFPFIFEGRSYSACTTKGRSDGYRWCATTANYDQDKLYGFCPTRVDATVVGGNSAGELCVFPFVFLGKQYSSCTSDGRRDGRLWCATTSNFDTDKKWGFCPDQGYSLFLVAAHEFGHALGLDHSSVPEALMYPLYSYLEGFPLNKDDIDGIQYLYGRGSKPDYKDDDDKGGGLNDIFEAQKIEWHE
# experiment_notes: enzyme inhibition; substrate peptide
reported_endpoint: IC50 (nM)
Express it in nM; write the number only.

binder	reported_endpoint	measurement_unit	numeric_result
active MMP-9-binding peptide M91010 (designed binder) GSGMKETAAAKFERQHMDSPDLGTDDDDKAMADIGSANSDPQFGLFSKYRTPNCRKVGEPACQMSFNPVCGSDMSTYANECTLCMKIREGGHNIKIIRNGPCGASAAA	IC50	nM	5
active MMP-9-binding peptide M91012 (designed binder) GSGMKETAAAKFERQHMDSPDLGTDDDDKAMADIGSANSDPQFGLFSKYRTPNCRVRGGPSCQMSFNPVCGSDMSTYANECTLCMKIREGGHNIKIIRNGPCGASAAA	IC50	nM	7.8
active MMP-9-binding peptide M91001 (designed binder) GSGMKETAAAKFERQHMDSPDLGTDDDDKAMADIGSANSDPQFGLFSKYRTPNCQRGIGPSCQMSYKPVCGSDMSTYANECTLCMKIREGGHNIKIIRNGPCGASAAA	IC50	nM	4.1

Please examine the following record next.
Prompt line: May I ask what IC50 has been recorded for active MMP-9-binding peptide M91005 (designed binder) GSGMKETAAAKFERQHMDSPDLGTDDDDKAMADIGSANSDPQFGLFSKYRTPNCRKRGGPSCQMSYNPVCGSDMSTYANECTLCMKIREGGHNIKIIRNGPCGASAAA ?
Response line: 8.4

Provenance of the data: patent US20200231654A1
